Origin of values: PubChem BioAssay

experiment: small-molecule binders of probe aNOTCH2, primary screen, biochemical, small-molecule microarray, 635/667 nm fluorescence (AID 1121); details: higher = more signal;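 also: score merges feature fluorescence read at 667 nm with its signal to noise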
We begin with a simple list: items and their reported composite z-score.
Answer with the value's number alone.

Here are 2 compounds together with their reported answers.
# compound `O=C(O)C1=CC[C@H]2C(=O)N(c3ccccc3)C(=O)[C@@H]12` ; its composite z-score = -0.0216

# compound `C=CCOC(=O)[C@H]1[C@@H]2C(=O)O[C@@H](c3ccccc3)[C@@H](c3ccccc3)N2[C@@H](c2ccc(OCCOC(=O)[C@H]3C[C@H]4C(=O)NCC(=O)N4[C@H]3c3ccc(O)cc3)cc2)[C@]12C(=O)Nc1ccccc12` ; its composite z-score = -0.0631

Next:
# compound `COCCOC(=O)N1C(=O)[C@@]2(c3cc(C#CCNC(N)=O)ccc31)[C@H](c1ccccc1OCCO)N1[C@H](c3ccccc3)[C@H](c3ccccc3)OC(=O)[C@H]1[C@@H]2C(=O)N1CCCCCCC1` ; its composite z-score = -0.121

# compound `COc1ccc(-c2cc3c(c(CCc4ccccc4)n2)[Si](C(C)C)(C(C)C)O[C@H]3c2ccccc2)cn1` ; its composite z-score = -0.162

# compound `CCOC(=O)C=C1C[C@@H](c2cccc([N+](=O)[O-])c2)O[C@@H](c2cccc([N+](=O)[O-])c2)O1` ; its composite z-score = -0.125

# compound CC[C@H]1C2=C3C(CC[C@H]4C(OCc5ccc(F)cc5C(F)(F)F)OC[C@](C)([C@@H]34)N(C(=O)OC(C)(C)C)C2)C(COC(C)=O)C1COC(C)=O (stereo partly drawn) ; its composite z-score = 0.173

# compound `COc1ccc([Si](C)(C)[C@H]2[C@H](CC(=O)N3CCC[C@H]3CO)O[C@@]3(C(=O)N(C)c4c(Br)cc(C)cc43)[C@@H]2C)cc1` ; its composite z-score = 0.503

# compound `COCCCNC(=O)[C@@]1(Cc2ccccc2I)c2ccccc2C(=O)N(Cc2ccccc2OC)[C@H]1c1ccc(CO)cc1` ; its composite z-score = -0.14

# compound `CO[C@H]1O[C@H](CO)[C@@H](OC(=O)Nc2cccc(F)c2)[C@H](OC(=O)Nc2ccc3c(c2)OCO3)[C@@H]1OC(=O)Nc1ccc2c(c1)OCO2` ; its composite z-score = -0.0247

# compound `COc1cc(Cc2cc3c(c(-c4ccccc4)n2)[Si](C(C)C)(C(C)C)OC3)cc(OC)c1OC` ; its composite z-score = -0.0028

# compound O=C1NC(=O)C2C1C=CC(C(O)c1ccc(F)cc1)N2Nc1ccc(Cl)cc1Cl (stereo not drawn) ; its composite z-score = -0.0113

# compound `Cc1ccc(S(=O)(=O)N2[C@@H](c3ccccc3)C(C(=O)O)=CC[C@H]2c2ccc(F)cc2)cc1` ; its composite z-score = -0.116

# compound `COCCOC(=O)N1C(=O)[C@@]2(c3cc(C#CCC(C(=O)OC)C(=O)OC)ccc31)[C@H](C(=O)N1CCc3cc(OC)c(OC)cc3C1)[C@H]1C(=O)O[C@H](c3ccccc3)[C@H](c3ccccc3)N1[C@@H]2c1ccccc1OCCO` ; its composite z-score = -0.106

---

assay: CREB reporter modulators under forskolin, primary screen, cell-based, PC12, CRE-LacZ reporter, forskolin-stimulated (AID 1146); settings: luminescence, 4.5 h, higher = more signal, called active from +8 up or from −8 down;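 also: PC12 cells with 6xCRE LacZ reporter stimulated by forskolin 10 µM; beta-galactosidase reporter signal reflecting CREB driven transcription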
The source made the active and inactive calls.
We begin with a simple list: items and their reported z-score.

Here are 3 molecules together with their reported answers.
# molecule `COCCCNC(=O)[C@@]1(Cc2ccccc2I)c2ccccc2C(=O)N(Cc2ccccc2C(F)(F)F)[C@H]1c1ccc(CO)cc1` ; its z-score = 1.15 (inactive)

# molecule `CCCCC(=C=CC[C@H](O)c1ccccc1OCCO)CCO` ; its z-score = 1.37 (inactive)

# molecule `COCCCNC(=O)[C@]1(Cc2ccccc2CN=[N+]=[N-])N=C(c2ccc(OCCCO)cc2)O[C@@H]1c1ccccc1N=[N+]=[N-]` ; its z-score = -0.786 (inactive)

Next:
# molecule `CCCCC(=C=CC[C@@H](O)c1ccc(OCCO)cc1)CCO` ; its z-score = -0.882 (inactive)

# molecule `O=C1O[C@H](c2ccccc2)[C@H](c2ccccc2)N2[C@H]1[C@@H](C(=O)Nc1nc3ccccc3s1)[C@]1(C(=O)Nc3ccccc31)[C@H]2c1ccccc1OCCO` ; its z-score = 0.519 (inactive)

# molecule `COCCOC(=O)N1C(=O)[C@@]2(c3cc(C#CC4=CCCCC4)ccc31)[C@H](c1ccc(O)cc1)N1[C@H](c3ccccc3)[C@H](c3ccccc3)OC(=O)[C@H]1[C@@H]2C(=O)N1CCc2cc(OC)c(OC)cc2C1` ; its z-score = 0.109 (inactive)

# molecule `C[C@]1(C(=O)NCC(F)(F)F)c2ccccc2C(=O)N(Cc2cc(C(F)(F)F)cc(C(F)(F)F)c2)[C@H]1c1ccc(CO)cc1` ; its z-score = 0.0167 (inactive)
